tested on: LP-1; assay: cells; assay type: functional, cell-based, Homo sapiens; settings: Homo sapiens, LP-1;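 note: growth inhibition of human LP-1 cells, with the read-out taken from a cell viability assay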
Description: SANGER: Inhibition of human LP-1 cell growth in a cell viability assay.
METRIC: IC50

Recorded results for 3 compounds are shown here.
compound="CC(C)C[C@H](NC(=O)[C@H](Cc1ccccc1)NC(=O)c1cnccn1)B(O)O [BORTEZOMIB]" metric=IC50 val="> 20 nM"
compound=COC(=O)[C@H](CCSC)NC(=O)c1ccc(NC[C@@H](N)CS)cc1-c1ccccc1 metric=IC50 val="> 1020 nM"
compound="COc1cc(N2CCC(N3CCN(C)CC3)CC2)ccc1Nc1ncc(Cl)c(Nc2ccccc2S(=O)(=O)C(C)C)n1 [TAE-684]" metric=IC50 val="1870 nM"

Query: Supply reported IC50 belonging to this compound: "COc1ccc(N(C(=O)Oc2c(C)cccc2C)c2ccnc(Nc3ccc(N4CCN(C)CC4)cc3)n2)c(OC)c1"
Reply: > 5120 nM

---

Hi there, I'd appreciate the recorded pIC50 for every entry that follows.
system: SNB-75; experiment: cells; format: functional, cell-based, Homo sapiens; conditions: Homo sapiens, SNB-75;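 note: cell viability assay measuring growth inhibition of human SNB-75 cells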
Description: SANGER: Inhibition of human SNB75 cell growth in a cell viability assay.
pIC50: −log10 of the molar value.

cpd_smiles=CC1(C)CCC(c2ccc(Cl)cc2)=C(CN2CCN(c3ccc(C(=O)NS(=O)(=O)c4ccc(N[C@H](CCN5CCOCC5)CSc5ccccc5)c(S(=O)(=O)C(F)(F)F)c4)cc3)CC2)C1 val="< 5.70"

Kindly give each listed record's pIC50.
1. COc1ccc(N(C(=O)Oc2c(C)cccc2C)c2ccnc(Nc3ccc(N4CCN(C)CC4)cc3)n2)c(OC)c1
2. NC(=O)c1cccc(-c2cc(Nc3ccc(OC(F)(F)F)cc3)ncn2)c1
3. Nc1ccccc1NC(=O)c1ccc(CNC(=O)OCc2cccnc2)cc1
4. OC[C@H](Cc1ccccc1)Nc1nc(Oc2ccc3c(c2)CCC3)nc2c1ncn2Cc1ccc(-c2ccccc2)cc1
5. CN(NC(=O)CC(=O)NN(C)C(=S)c1ccccc1)C(=S)c1ccccc1
6. COc1ccc(-c2cc3nccn3c(Nc3ncccc3C(N)=O)n2)cc1OC
7. NC(=O)c1ccc(N(C(N)=O)c2c(F)cccc2F)nc1-c1ccc(F)cc1F
8. Cc1ccc(NC(=O)c2ccc(CN3CCN(C)CC3)cc2)cc1Nc1nccc(-c2cccnc2)n1

Reply:
1. 6.45
2. < 5.89
3. < 5.30
4. < 4.99
5. 6.98
6. < 5.10
7. < 5.70
8. < 5.70

For every listed record, write down its pIC50.
1. CS(=O)(=O)N1CCN(Cc2cc3nc(-c4cccc5[nH]ncc45)nc(N4CCOCC4)c3s2)CC1
2. CCCCCCCCCCCC1=C(O)C(=O)C=C(O)C1=O

Reply:
1. 5.70
2. 4.76

---

Would you mind telling me the reported pIC50 of each entry?
system: LK-2; experiment: cells; type: functional, cell-based; details: Homo sapiens;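 note: growth inhibition of LK-2 cells, read out with a viability assay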
Description: SANGER: Inhibition of human LK-2 cell growth in a cell viability assay.
pIC50: −log10 of the molar value.

Some molecules with recorded pIC50:
molecule="CN(C)CCOc1ccc(-c2nc(-c3ccncc3)c(-c3ccc4c(c3)CC/C4=N\\O)[nH]2)cc1 [SB590885]" metric=pIC50 val="< 5.30"
molecule=OC[C@H](Cc1ccccc1)Nc1nc(Oc2ccc3c(c2)CCC3)nc2c1ncn2Cc1ccc(-c2ccccc2)cc1 metric=pIC50 val="< 4.99"

Each molecule below has a recorded value; state its pIC50.
1. CC1=C(/C=C/C(C)=C/C=C/C(C)=C/C(=O)O)C(C)(C)CCC1 [TRETINOIN]
2. CC1(C)CCC(c2ccc(Cl)cc2)=C(CN2CCN(c3ccc(C(=O)NS(=O)(=O)c4ccc(N[C@H](CCN5CCOCC5)CSc5ccccc5)c(S(=O)(=O)C(F)(F)F)c4)cc3)CC2)C1 [NAVITOCLAX]
3. NC(=O)Nc1cc(-c2cccc(F)c2)sc1C(=O)N[C@H]1CCCNC1 [AZD-7762]
4. CN(NC(=O)CC(=O)NN(C)C(=S)c1ccccc1)C(=S)c1ccccc1 [ELESCLOMOL]
5. C/C(=C\c1csc(C)n1)[C@@H]1C[C@@H]2O[C@]2(C)CCC[C@H](C)[C@H](O)[C@@H](C)C(=O)C(C)(C)[C@@H](O)CC(=O)O1 [PATUPILONE]
6. O=C1NC(=O)c2c1c(-c1ccccc1Cl)cc1[nH]c3ccc(O)cc3c21

Reply:
1. < 5.00
2. < 5.70
3. 5.83
4. 7.71
5. 8.31
6. < 5.70
